Data credit: paper PMC1084334

# system: SynGUN4 (Synechocystis sp. PCC 6803, UniProt P72583, R214A)
# Construct: full length, residues 1-233; E. coli BL21(DE3)
# Sequence (P72583 whole entry R214A, the tested form may be a part): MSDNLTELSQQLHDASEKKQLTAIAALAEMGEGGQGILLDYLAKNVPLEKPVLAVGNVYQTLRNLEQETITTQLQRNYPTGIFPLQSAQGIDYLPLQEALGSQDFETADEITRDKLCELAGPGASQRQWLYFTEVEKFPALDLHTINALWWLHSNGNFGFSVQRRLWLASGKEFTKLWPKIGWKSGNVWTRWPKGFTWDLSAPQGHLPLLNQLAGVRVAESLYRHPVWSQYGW
# experimentNotes: tryptophan fluorescence quenching
# runConditions: read-out: dissociation constant
pKd: −log10 of the molar value.
reportedProperty: pKd

CC1=C(CCC(=O)O)c2cc3nc(cc4[nH]c(cc4C)cc4[nH]c(cc1n2)cc4C)C(C)=C3CCC(=O)O ... 4.96

---

# system: SynGUN4 (Synechocystis sp. PCC 6803, UniProt P72583, L222A)
# Construct: full length, residues 1-233; E. coli BL21(DE3)
# Sequence (P72583 whole entry L222A, the tested form may be a part): as the sequence (P72583 whole entry R214A, the tested form may be a part) above, with A214R, L222A counted along it
# experimentNotes: tryptophan fluorescence quenching
# runConditions: read-out: dissociation constant
pKd: −log10 of the molar value.
reportedProperty: pKd

CC1=C(CCC(=O)O)c2cc3nc(cc4[nH]c(cc4C)cc4[nH]c(cc1n2)cc4C)C(C)=C3CCC(=O)O ... 5.18

---

# system: SynGUN4 (Synechocystis sp. PCC 6803)
# Construct: gene sll0558; full length, residues 1-233; E. coli BL21(DE3)
# experimentNotes: tryptophan fluorescence quenching
# Assay type: binding
pKd: −log10 of the molar value.
reportedProperty: pKd

CC1=C(CCC(=O)O)c2cc3nc(cc4[nH]c(cc4C)cc4[nH]c(cc1n2)cc4C)C(C)=C3CCC(=O)O [Deutero] ... 6.06

---

# system: SynGUN4 (Synechocystis sp. PCC 6803, UniProt P72583, R113A)
# Construct: full length, residues 1-233; E. coli BL21(DE3)
# Sequence (P72583 whole entry R113A, the tested form may be a part): as the sequence (P72583 whole entry R214A, the tested form may be a part) above, with R113A, A214R counted along it
# experimentNotes: tryptophan fluorescence quenching
# runConditions: read-out: dissociation constant
pKd: −log10 of the molar value.
reportedProperty: pKd

CC1=C(CCC(=O)O)c2cc3nc(cc4[nH]c(cc4C)cc4[nH]c(cc1n2)cc4C)C(C)=C3CCC(=O)O [Deutero] ... 5.11

---

# system: SynGUN4 (Synechocystis sp. PCC 6803, UniProt P72583)
# Construct: gene sll0558; full length, residues 1-233; E. coli BL21(DE3)
# Sequence (P72583 whole entry, the tested form may be a part): as the sequence (P72583 whole entry R214A, the tested form may be a part) above, with A214R counted along it
# experimentNotes: tryptophan fluorescence quenching
# Type: binding
# runConditions: 50 mM MOPS-KOH pH 7.7, 150 mM NaCl, 1 mM DTT; one-site fit
pKd: −log10 of the molar value.
reportedProperty: pKd

C=CC1=C(C)C2=NC1=Cc1c(C)c(C=C)c3[n]1[Co+][n]1c(c(C)c(CCC(=O)O)c1=CC1=NC(=C3)C(C)=C1CCC(=O)O)=C2 [Co-Proto] ... 5.57

---

# system: SynGUN4 (Synechocystis sp. PCC 6803, UniProt P72583, A219G)
# Construct: full length, residues 1-233; E. coli BL21(DE3)
# Sequence (P72583 whole entry A219G, the tested form may be a part): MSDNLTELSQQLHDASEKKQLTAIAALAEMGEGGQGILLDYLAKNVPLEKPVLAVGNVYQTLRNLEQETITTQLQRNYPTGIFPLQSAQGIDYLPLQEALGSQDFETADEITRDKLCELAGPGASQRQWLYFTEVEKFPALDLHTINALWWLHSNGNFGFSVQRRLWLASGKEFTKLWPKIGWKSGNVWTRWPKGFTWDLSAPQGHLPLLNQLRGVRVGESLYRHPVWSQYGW
# experimentNotes: tryptophan fluorescence quenching
# runConditions: read-out: dissociation constant
reportedProperty: Kd (nM)

CC1=C(CCC(=O)O)c2cc3nc(cc4[nH]c(cc4C)cc4[nH]c(cc1n2)cc4C)C(C)=C3CCC(=O)O ... 1560
